- target: ABCB1 (P-gp) (Homo sapiens, UniProt P08183)
- Sequence (P08183 whole entry): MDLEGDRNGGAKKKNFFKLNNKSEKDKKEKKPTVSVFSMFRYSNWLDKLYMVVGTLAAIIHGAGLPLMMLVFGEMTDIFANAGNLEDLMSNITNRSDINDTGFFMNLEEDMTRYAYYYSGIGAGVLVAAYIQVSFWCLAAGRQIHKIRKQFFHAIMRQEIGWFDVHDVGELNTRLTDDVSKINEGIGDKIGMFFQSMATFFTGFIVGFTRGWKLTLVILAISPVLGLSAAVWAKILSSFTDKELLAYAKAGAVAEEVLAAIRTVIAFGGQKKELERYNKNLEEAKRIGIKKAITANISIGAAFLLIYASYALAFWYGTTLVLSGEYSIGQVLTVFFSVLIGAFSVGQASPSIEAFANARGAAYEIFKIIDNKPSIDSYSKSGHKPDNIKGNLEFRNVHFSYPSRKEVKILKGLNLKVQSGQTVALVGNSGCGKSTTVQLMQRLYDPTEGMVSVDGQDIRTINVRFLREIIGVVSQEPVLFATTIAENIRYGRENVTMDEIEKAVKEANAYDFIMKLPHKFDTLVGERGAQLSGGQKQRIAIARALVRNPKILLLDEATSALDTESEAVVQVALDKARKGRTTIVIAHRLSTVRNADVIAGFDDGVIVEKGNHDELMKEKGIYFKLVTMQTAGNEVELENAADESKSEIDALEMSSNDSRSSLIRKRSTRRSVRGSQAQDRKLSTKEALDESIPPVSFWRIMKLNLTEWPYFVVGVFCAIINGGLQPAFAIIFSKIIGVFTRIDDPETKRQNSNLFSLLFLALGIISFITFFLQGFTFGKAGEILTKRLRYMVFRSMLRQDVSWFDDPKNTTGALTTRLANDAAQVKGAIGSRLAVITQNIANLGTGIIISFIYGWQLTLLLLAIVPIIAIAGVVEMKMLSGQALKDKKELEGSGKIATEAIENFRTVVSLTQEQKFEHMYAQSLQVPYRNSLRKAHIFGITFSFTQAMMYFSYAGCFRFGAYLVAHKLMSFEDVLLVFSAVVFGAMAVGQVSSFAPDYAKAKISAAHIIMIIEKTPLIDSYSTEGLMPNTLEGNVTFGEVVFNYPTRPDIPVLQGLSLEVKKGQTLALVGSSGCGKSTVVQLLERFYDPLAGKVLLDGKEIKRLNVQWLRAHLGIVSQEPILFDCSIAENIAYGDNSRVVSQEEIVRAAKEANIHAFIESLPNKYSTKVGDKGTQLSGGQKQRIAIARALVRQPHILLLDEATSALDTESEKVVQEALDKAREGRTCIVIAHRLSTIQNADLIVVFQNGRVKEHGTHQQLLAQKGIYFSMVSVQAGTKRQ
- assay.overview: daunorubicin assay, ABCB1-expressing A2780/ADR cells
- Format: cell-based
- particulars: human, ABCB1-expressing A2780/ADR cells, probe daunorubicin (3 μM final); relative to reference inhibitor 34 = 100%; read-out: maximal inhibition (Imax), ABCB1 daunorubicin
assay.metric: inhibition at 180 min

Exercise: Tell me the measured inhibition at 180 min of `COC(=O)/C(C#N)=C/c1cn(CC(=O)Nc2ccc(OC)cc2)c2ccccc12` , please.
Key: 84%

----------
# pIC50 per record follows
- target: ABCB1 (Homo sapiens)
- assay.overview: calcein AM assay, ABCB1-expressing A2780/ADR cells
- particulars: read-out: ABCB1 calcein AM IC50 ± SEM; A2780/ADR cells; 22, 23 constrained to reference inhibitor 34
Entry type: numeric. Quantity: pIC50, the -log10 of concentration in molar units.

Solved entries (count: 3):
• COC(=O)/C(C#N)=C/c1cn(CC(=O)Nc2ccc(Br)cn2)c2ccccc12 [Compound 31] = 5.85
• COC(=O)/C(C#N)=C/c1cn(CC(=O)Nc2cccc(OC)c2)c2ccccc12 [Compound 23] = 5.27
• COC(=O)/C(C#N)=C/c1cn(CC(=O)Nc2ccc(C)cn2)c2ccccc12 [Compound 30] = 5.82

Exercise: Which pIC50 is listed for COC(=O)/C(C#N)=C/c1cn(CC(=O)Nc2ccc(OC)cc2)c2ccccc12 [Compound 24] ?
Key: 6.01

Exercise: Fill in the blank: the reported pIC50 of COC(=O)/C(C#N)=C/c1cn(CC(=O)Nc2ccccc2OC)c2ccccc12 [Compound 22] is ____.
Key: 4.61

----------
Recorded pIC50 values for a group of molecules are listed next.
- target: MCT1 (Homo sapiens, UniProt P53985)
- Construct: MCT1-expressing A-549 cells[14],[15] were exposed to the MCT1 substrate 3-BP, which becomes influxed by MCT1; endogenous in cells
- Sequence (P53985 whole entry): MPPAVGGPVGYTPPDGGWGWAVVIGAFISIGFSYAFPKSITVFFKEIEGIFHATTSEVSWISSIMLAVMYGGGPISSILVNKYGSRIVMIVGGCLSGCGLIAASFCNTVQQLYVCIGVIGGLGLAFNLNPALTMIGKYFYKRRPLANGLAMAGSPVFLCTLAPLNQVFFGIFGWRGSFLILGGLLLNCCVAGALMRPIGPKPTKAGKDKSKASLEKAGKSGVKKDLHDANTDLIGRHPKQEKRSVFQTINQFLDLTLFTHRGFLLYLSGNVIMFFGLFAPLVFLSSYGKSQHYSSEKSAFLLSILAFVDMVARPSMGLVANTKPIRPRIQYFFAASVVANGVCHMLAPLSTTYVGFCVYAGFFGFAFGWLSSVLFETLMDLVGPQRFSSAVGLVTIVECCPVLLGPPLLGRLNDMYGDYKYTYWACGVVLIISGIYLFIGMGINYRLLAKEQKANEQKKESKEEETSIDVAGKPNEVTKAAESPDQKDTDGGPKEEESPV
- Sequence (P35613 140-385 partner limits assumed): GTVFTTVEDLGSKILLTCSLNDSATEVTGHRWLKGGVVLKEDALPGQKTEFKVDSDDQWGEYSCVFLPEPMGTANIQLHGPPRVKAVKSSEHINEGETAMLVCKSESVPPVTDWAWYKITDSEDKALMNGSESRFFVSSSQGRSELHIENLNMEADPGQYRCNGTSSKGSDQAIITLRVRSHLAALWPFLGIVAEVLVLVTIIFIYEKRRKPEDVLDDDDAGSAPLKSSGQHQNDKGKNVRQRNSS
- assay.overview: functional 3-BP cell viability assay (MCT1 transport inhibition)
- particulars: MCT1-expressing A-549 cells, 50 μM 3-BP, 72 h; read-out: MCT1 transport inhibition IC50 ± SEM
// pIC50: -log10(molar conc.)

- COC(=O)/C(C#N)=C/c1cn(CC(=O)Nc2ccc(OC)cc2)c2ccccc12: 7.09
- COC(=O)/C(C#N)=C/c1cn(CC(=O)Nc2cccnc2)c2ccccc12: 6.96
- COC(=O)/C(C#N)=C/c1cn(CC(=O)Nc2ccc(Br)cn2)c2ccccc12: 6.67
- COC(=O)/C(C#N)=C/c1cn(CC(=O)Nc2ccc(Br)cc2)c2ccccc12: 6.54
- COC(=O)/C(C#N)=C/c1cn(CC(=O)Nc2ccc3ccccc3c2)c2ccccc12: 6.96

Exercise: Query: pIC50; subject: `COC(=O)/C(C#N)=C/c1cn(CC(=O)Nc2ccccc2OC)c2ccccc12`
Key: 6.87

Exercise: If you can, please state the reported pIC50 value of `COC(=O)/C(C#N)=C/c1cn(CC(=O)Nc2ccc(C)cn2)c2ccccc12` .
Key: 7.08

Exercise: Fill blank: measured pIC50 of the molecule N#C/C(=C\c1ccc(O)cc1)C(=O)O [Compound 8, reference compound] is ____.
Key: 7.06

----------
Reported log10 of GI50 for target or system MCF-7 cancer cells, by entry.
A difference of one corresponds to tenfold GI50; all values are log10 with GI50 in µM.

Consider the reported log10 of GI50 for these molecules:
• COC(=O)/C(C#N)=C/c1cn(CC(=O)Nc2ccc(OC)cc2)c2ccccc12 = 1.18
• COC(=O)/C(C#N)=C/c1cn(CC(=O)Nc2ccc(Br)cc2)c2ccccc12 = 1.00
• COC(=O)/C(C#N)=C/c1cn(CC(=O)Nc2cccc(OC)c2)c2ccccc12 = 1.17
• COC(=O)/C(C#N)=C/c1cn(CC(=O)Nc2cccnc2)c2ccccc12 = 1.05
• COC(=O)/C(C#N)=C/c1cn(CC(=O)Nc2ccc(F)cc2)c2ccccc12 = 1.18

Exercise: So what's the measured log10 of GI50 for this one? `COC(=O)/C(C#N)=C/c1cn(CC(=O)Nc2ccc(Br)cn2)c2ccccc12`
Key: 0.50

Exercise: Looking for the measured log10 of GI50 of `COC(=O)/C(C#N)=C/c1cn(CC(=O)Nc2ccccc2OC)c2ccccc12` , can you help?
Key: 1.28

Exercise: Entry `COC(=O)/C(C#N)=C/c1cn(CC(=O)Nc2ccccn2)c2ccccc12` has what log10 of GI50?
Key: 0.64

Exercise: // lookup log10 of GI50 for `COC(=O)/C(C#N)=C/c1cn(CC(=O)Nc2ccc(Cl)cc2)c2ccccc12`
Key: 1.03

Exercise: Form field: reported log10 of GI50 of `COC(=O)/C(C#N)=C/c1cn(CC(=O)Nc2ccc3ccccc3c2)c2ccccc12`
Key: 1.19

Exercise: Record request: log10 of GI50 value, item `COC(=O)/C(C#N)=C/c1cn(CC(=O)Nc2ccc(C)cn2)c2ccccc12`
Key: 0.96

Exercise: Quick one: log10 of GI50 of N#C/C(=C\c1ccc(O)cc1)C(=O)O [Compound 8, reference compound] ?
Key: 2.03

Exercise: Item `COC(=O)/C(C#N)=C/c1cn(CC(=O)Nc2c(Cl)cccc2Cl)c2ccccc12` has what recorded log10 of GI50?
Key: 1.24

Exercise: Consider the molecule shown here: `COC(=O)/C(C#N)=C/c1cn(CC(=O)Nc2ccccc2C)c2ccccc12` What is its recorded log10 of GI50?
Key: 1.18

Exercise: Reported log10 of GI50, molecule `COC(=O)/C(C#N)=C/c1cn(CC(=O)Nc2ccccc2)c2ccccc12` : ____
Key: 1.19

Exercise: Using the record for `COC(=O)/C(C#N)=C/c1cn(CC(=O)Nc2cccc3ccccc23)c2ccccc12` , report its log10 of GI50.
Key: 1.19

Exercise: For the molecule shown here, `COC(=O)/C(C#N)=C/c1cn(CC(=O)Nc2ccc(C)cc2)c2ccccc12` , give the reported log10 of GI50.
Key: 1.14
